- Test system: GRANTA-519
- RUN DESCRIPTION: Combination study, ATPLite 72 h, dose matrix (Synergy Score, CI50)
- EXPERIMENTAL SETUP: combination with Compound 1
PROPERTY MEASURED: CI50 growth inhibition

1) CN1CCc2c(c3ccccc3n2Cc2ccc(C(=O)NO)cc2)C1.Cl [Tubastatin A hydrochloride]
S (S=0.01 to <0.5)
2) O=C(NOC[C@H](O)CO)c1ccc(F)c(F)c1Nc1ccc(I)cc1F
S (S=0.01 to <0.5)
3) NC1(c2ccc(-c3nc4ccn5c(=O)[nH]nc5c4cc3-c3ccccc3)cc2)CCC1
S (S=0.01 to <0.5)

Attribution: patent US20240325398A1
